# experiment notes: acute toxicity, single oral dose
# Assay type: in vivo
# condition notes: both sexes, SD, rat, in vivo, po; single intragastric administration; read-out: MTD (tolerance to acute toxicity of a single dosage)
measurement kind: MTD at 14 days

Prompt line: Quickly give me recorded MTD at 14 days for COc1c2cc(c(O)c1OC)CCCCC(OS(=O)(=O)O)CCc1ccc(O)c-2c1 (stereo not shown)
Response line: > 1500 mg/kg
